From: ChEMBL document CHEMBL3638997

Target: Phosphatidylinositol 4,5-bisphosphate 3-kinase catalytic subunit alpha isoform (Homo sapiens, UniProt P42336)
Sequence (P42336 whole entry, canonical isoform): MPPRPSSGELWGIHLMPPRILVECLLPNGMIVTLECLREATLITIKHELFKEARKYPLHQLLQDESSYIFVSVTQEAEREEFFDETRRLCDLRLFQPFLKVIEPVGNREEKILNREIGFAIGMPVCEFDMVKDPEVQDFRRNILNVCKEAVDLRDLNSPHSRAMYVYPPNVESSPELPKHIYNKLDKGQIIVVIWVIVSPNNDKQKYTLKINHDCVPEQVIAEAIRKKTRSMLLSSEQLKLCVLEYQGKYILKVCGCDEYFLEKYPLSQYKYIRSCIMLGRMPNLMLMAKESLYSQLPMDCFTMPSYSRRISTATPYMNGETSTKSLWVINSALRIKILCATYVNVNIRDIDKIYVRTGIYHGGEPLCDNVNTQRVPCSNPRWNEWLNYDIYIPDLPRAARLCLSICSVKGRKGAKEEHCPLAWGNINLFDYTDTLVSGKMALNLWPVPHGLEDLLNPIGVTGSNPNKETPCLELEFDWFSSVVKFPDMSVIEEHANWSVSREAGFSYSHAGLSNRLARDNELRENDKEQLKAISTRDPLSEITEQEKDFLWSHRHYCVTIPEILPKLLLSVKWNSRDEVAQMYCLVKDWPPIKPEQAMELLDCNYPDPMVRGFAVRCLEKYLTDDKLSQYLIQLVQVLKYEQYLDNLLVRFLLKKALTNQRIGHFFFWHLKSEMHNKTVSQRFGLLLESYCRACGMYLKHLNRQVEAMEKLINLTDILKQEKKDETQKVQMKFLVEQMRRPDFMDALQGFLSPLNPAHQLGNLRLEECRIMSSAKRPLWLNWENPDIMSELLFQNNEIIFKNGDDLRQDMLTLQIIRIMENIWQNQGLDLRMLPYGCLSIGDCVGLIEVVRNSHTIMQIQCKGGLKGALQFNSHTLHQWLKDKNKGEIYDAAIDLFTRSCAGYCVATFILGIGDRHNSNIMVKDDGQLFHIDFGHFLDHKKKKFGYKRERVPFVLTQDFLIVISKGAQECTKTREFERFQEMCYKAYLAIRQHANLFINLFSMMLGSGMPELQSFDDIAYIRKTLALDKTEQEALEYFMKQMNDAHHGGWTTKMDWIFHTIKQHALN
Assay: Filter-Binding-Assay: PI3Kalpha assay described herein provides IC50 values indicating the activity of the compounds inhibiting PI3 kinase alpha activity Inhibition of PI3 kinase is expected to be indicative of activity in treating conditions of excessive or anomalous cell proliferation, such as cancers. See also J. A. Engelman, Nature Reviews Cancer, 2009, 9, 550-562; A. Carnero, Expert Opin. …
OBSERVATION_TYPE: pIC50
pIC50 here is simply -log10 of the concentration when that concentration is written in mol/L.

Report pIC50, nothing else, for this compound: "CCc1ncnc(N2CCC(O)(CC)CC2)c1C#Cc1ccc(N)nc1"
7.82
